- Assay info: qHTS assay to identify small molecule antagonists of the estrogen receptor beta (ER-beta) signaling pathway - cell viability counter screen (AID 1259382); note: nearly all actives have a fitted effect of over 55% in size
- Conditions used: ER-beta-UAS-bla HEK293T viability, CellTiter-Glo luminescence, 16 h; series mostly up to 92.4 µM
Records with an inconclusive call do not appear. Calls of active or inactive are those of the source. Calls come from the whole dose curve; as a rule, active = well fitted cell-killing curve with a large enough effect in the repeat runs; inconclusive = weak or mixed curves; inactive = flat fitted curve, though single readings scatter.
Hi! Could you answer with just one of these? active, inactive

Input line: What did this assay record as the result for Nc1ccccc1O ?
Output line: inactive

Input line: What did this assay record as the result for CCCCN1CCCC[C@H]1C(=O)Nc1c(C)cccc1C ?
Output line: inactive

Input line: What did this assay record as the result for N=C1C=CC(=C(c2ccc(N)cc2)c2ccc(N)cc2)C=C1 ?
Output line: inactive

Input line: What did this assay record as the result for C[C@@H](NCCCc1cccc(C(F)(F)F)c1)c1cccc2ccccc12 ?
Output line: active
